Sourced from PubChem BioAssay

The reader will find reported inhibition values listed item by item below.
Experiment: TLR3 IRF3 reporter activation blockers – cell-based, poly I:C stimulus, luciferase, 10K MLSCN set, primary screen (AID 602277)
Details: HEK293-TLR3 RL24 IRF3 luciferase reporter, at 10 µM, stronger effect = higher value
# value in %; strip the unit string

Worked cases, inhibition given:
| Compound | Readout Type | Result |
| --- | --- | --- |
| COc1ccc2nc(CC(C)(C)CC(=O)O)c[n+]([O-])c2c1 | inhibition | 29.8 |
| Cc1csc2ncc(C(=O)Nc3ccccc3Cl)c(=O)n12 | inhibition | -83.1 |
| Cc1cc(NC(=O)CCCN2C(=O)c3cccnc3C2=O)no1 | inhibition | 13.4 |
| CN1C(=O)C(CC(=O)N2CCN(C(c3ccccc3)c3ccccc3)CC2)N(C)C1=O (stereo unspecified) | inhibition | 22.8 |
| O=C(CN1CCC(O)(c2ccc3c(c2)OCO3)CC1)OC1CCCCC1 | inhibition | 15.6 |
| N#CC1=C(N)Oc2cc(O)ccc2C1C1CCCCC1 (stereo unspecified) | inhibition | 25.6 |

# input Please look up its inhibition: Cc1cc(C(N)=O)c2cc(Br)ccc2n1
# output 32.5

# input Please look up its inhibition: N#Cc1cc2c(nc1SCC(=O)Nc1sc3c(c1C#N)CCC3)CCCCC2
# output -0.19

# input Please look up its inhibition: Cc1nn(-c2ccc(F)cc2)c2sc(C(=O)N3CCCCCC3)cc12
# output -14.2

# input Please look up its inhibition: Cc1ccc(S(=O)(=O)N(CCO)c2cc3c(s2)CCCC3)cc1
# output 21.8

# input Please look up its inhibition: CC1=C(n2nnc3ccccc32)C(c2ccccc2)C(C#N)=C(N)O1 (stereo unspecified)
# output 32

* * *

Test: reduction of polyQ htt aggregates in cells – imaging, exon1htt(103Q)mCFP cells, high-content imaging, primary screen (AID 483);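 further: compound exposure lasted 3 days before fixation; percent of the per-plate median nuclei count of sample wells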
Settings: exon1htt(103Q)mCFP cell line, aggregate imaging, at 2 µM; measured here: cell count, toxicity
The reader will find reported nuclei count values listed item by item below.
# value in %; strip the unit string

Worked cases, nuclei count given:
| Molecule | Readout Type | Result |
| --- | --- | --- |
| Nn1c(SCc2csc(-c3ccccc3)n2)nnc1-c1cccs1 | nuclei count | 93.3 |
| CCn1c(C)c(CCC(=O)O)c(=O)n2nc(-c3ccccc3OC)cc12 | nuclei count | 103 |

# input Please look up its nuclei count: O=C(CSc1nnc(-c2ccccc2Br)o1)Nc1cccc2ccccc12
# output 81.3

# input Please look up its nuclei count: CCN(CCO)C(=O)CC(c1ccccc1)c1cc(Br)ccc1O (stereo unspecified)
# output 102

# input Please look up its nuclei count: Cc1cc(C)nc(SCCS(=O)Cc2ccc(Cl)cc2)n1 (stereo unspecified)
# output 108

# input Please look up its nuclei count: COC(=O)c1ccc(NC(=O)Cn2nnc3ccccc32)cc1
# output 134

* * *

Assay: reduction of polyQ htt aggregates in cells – imaging, exon1htt(103Q)mCFP cells, high-content imaging, primary screen (AID 483);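 further: compound exposure lasted 3 days before fixation; percent of the per-plate median nuclei count of sample wells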
Conditions: exon1htt(103Q)mCFP cell line, aggregate imaging, at 2 µM; measured here: cell count, toxicity
Readout Type: nuclei count

| Compound | Result |
| --- | --- |
| O=C(Cn1nc(Cc2cccnc2)c2ccccc2c1=O)NCC1CCCO1 (centres undefined) | 69.2% |
| O=C(O)C1CCCN1C(=O)c1cccs1 (centres undefined) | 105% |
| CCOC(=O)c1c(NC(=O)Cn2c(=O)oc3ccccc32)oc(C)c1C(C)=O | 74.1% |

# input Please look up its nuclei count: O=C(c1ccc2nc(N3CCOCC3)sc2c1)N1CCCC1
# output 62.7%

# input Please look up its nuclei count: CCc1ccccc1OCCCCN1CCCC1
# output 89.5%

# input Please look up its nuclei count: C=CCSc1n[nH]c(-c2ccc(OC)cc2)n1
# output 89.5%

# input Please look up its nuclei count: O=C(COc1ccccc1F)NC1CC1
# output 92.8%

# input Please look up its nuclei count: c1ccc2c(c1)nc(NCCN1CCOCC1)c1nncn12
# output 85.4%

# input Please look up its nuclei count: CN(C(=O)c1ccccn1)c1nnc(-c2cccnc2)s1
# output 93.2%

# input Please look up its nuclei count: O=C(NCCCN1CCCC1=O)c1ccc2c(c1)NC(=O)C(N1CCOCC1)S2 (centres undefined)
# output 114%

# input Please look up its nuclei count: CCOC(=O)N1CCC(N2C(=O)c3ccccc3C2Nc2cc(Cl)c(OC)cc2OC)CC1 (centres undefined)
# output 111%
